This listing pairs molecules with measured pIC50.
tested on: MCF7; assay: Cytotoxicity against human MCF7 cells by MTT assay; assay type: functional, cell-based
The scale used: pIC50 is minus the common logarithm of the concentration in molar units.

>>> df
                               query_smiles  data_value
0     c1ccc(-c2nnc(-c3c[nH]c4ccccc34)o2)cc1        3.41
1  COc1cc(-c2nnc(-c3cn(C)c4ccccc34)o2)ccc1OCc1ccccc1        4.45
2  COc1ccc(-c2nnc(-c3c[nH]c4ccccc34)o2)cc1OC        3.25
3   Clc1ccc(-c2nnc(-c3c[nH]c4ccccc34)o2)cc1        4.32
4  COc1ccc(-c2nnc(-c3c[nH]c4ccccc34)o2)c(OC)c1OC        3.92

Request: What value of pIC50 has been reported for the following molecule? c1ccc2c(-c3nnc(-c4ccncc4)o3)c[nH]c2c1
Response: 6.00

Request: Record: c1ccc(Cc2nnc(-c3c[nH]c4ccccc34)o2)cc1
Response: 4.41

Request: Record: c1cncc(-c2nnc(-c3c[nH]c4ccccc34)o2)c1
Response: 5.27

Request: Record: Cc1nnc(-c2c[nH]c3ccccc23)o1
Response: 3.70

====

test system: PC-3; assay: Cytotoxicity against human PC3 cells by MTT assay; format: functional, cell-based
outcome measure: IC50

A selection of reference data follows.
In [3]: df
Out[3]:
                               query_smiles  data_value
0  COc1cc(-c2nnc(-c3cn(C)c4ccccc34)o2)ccc1OCc1ccccc1      > 1 mM
1  COc1cc(-c2nnc(-c3c[nH]c4ccccc34)o2)ccc1OCc1ccccc1      > 1 mM
2  COc1ccc(-c2nnc(-c3c[nH]c4ccccc34)o2)c(OC)c1OC      > 1 mM
3   COc1ccc(-c2nnc(-c3c[nH]c4ccccc34)o2)cc1      > 1 mM
4  COc1cc(-c2nnc(-c3c[nH]c4ccccc34)o2)ccc1O      > 1 mM
5     c1cncc(-c2nnc(-c3c[nH]c4ccccc34)o2)c1    0.711 mM
6   Clc1ccc(-c2nnc(-c3c[nH]c4ccccc34)o2)cc1   0.0416 mM
7        FC(F)(F)c1nnc(-c2c[nH]c3ccccc23)o1      > 1 mM

Request: What value of IC50 has been reported for the following compound? c1ccc(Cc2nnc(-c3c[nH]c4ccccc34)o2)cc1
Response: > 1 mM

Request: Record: Cc1nnc(-c2c[nH]c3ccccc23)o1
Response: > 1 mM

Request: Record: c1ccc(-c2nnc(-c3c[nH]c4ccccc34)o2)cc1
Response: > 1 mM

Request: Record: c1ccc2c(-c3nnc(-c4ccncc4)o3)c[nH]c2c1
Response: 0.0041 mM

Request: Record: COc1ccc(-c2nnc(-c3c[nH]c4ccccc34)o2)cc1OC
Response: > 1 mM

====

This listing pairs compounds with measured IC50.
test system: LNCaP; test: Cytotoxicity against human LNCAP cells by MTT assay; assay type: functional, cell-based

A selection of reference data follows.
In [3]: df
Out[3]:
                               query_smiles  data_value
0        FC(F)(F)c1nnc(-c2c[nH]c3ccccc23)o1   > 1000 µM
1               Cc1nnc(-c2c[nH]c3ccccc23)o1   > 1000 µM
2  COc1ccc(-c2nnc(-c3c[nH]c4ccccc34)o2)c(OC)c1OC   > 1000 µM
3     c1ccc2c(-c3nnc(-c4ccncc4)o3)c[nH]c2c1       10 µM
4     c1ccc(Cc2nnc(-c3c[nH]c4ccccc34)o2)cc1   > 1000 µM

Request: What value of IC50 has been reported for the following compound? COc1cc(-c2nnc(-c3c[nH]c4ccccc34)o2)ccc1O
Response: > 1000 µM

Request: Record: c1cncc(-c2nnc(-c3c[nH]c4ccccc34)o2)c1
Response: 69.4 µM

Request: Record: COc1cc(-c2nnc(-c3cn(C)c4ccccc34)o2)ccc1OCc1ccccc1
Response: > 1000 µM

Request: Record: Clc1ccc(-c2nnc(-c3c[nH]c4ccccc34)o2)cc1
Response: 583 µM

Request: Record: COc1ccc(-c2nnc(-c3c[nH]c4ccccc34)o2)cc1OC
Response: > 1000 µM

Request: Record: COc1ccc(-c2nnc(-c3c[nH]c4ccccc34)o2)cc1
Response: > 1000 µM

Request: Record: COc1cc(-c2nnc(-c3c[nH]c4ccccc34)o2)ccc1OCc1ccccc1
Response: > 1000 µM

Request: Record: c1ccc(-c2nnc(-c3c[nH]c4ccccc34)o2)cc1
Response: > 1000 µM
